Quick reference for inhibition of SARS-CoV-2 cytopathic effect among some compounds
test system: Vero E6 infected with SARS-CoV-2; test: inhibition of SARS-CoV-2 cytopathic effect; higher = more antiviral protection, active = above 15; conditions: 8.33 nM; 48 h
Note: unit % is implicit; provide only the numeric part.

Worked examples follow.
COc1ccc2[nH]c([S+]([O-])Cc3ncc(C)c(OC)c3C)nc2c1 (stereo not drawn) [omeprazole-magnesium] | 2.29
COc1c(N2C[C@@H]3CCCN[C@@H]3C2)c(F)cc2c(=O)c(C(=O)O)cn(C3CC3)c12 | 0.31
CCCC(CCC)C(=O)Nc1ccn([C@@H]2O[C@H](CO)[C@@H](O)C2(F)F)c(=O)n1 | -1.71

Req: Return inhibition of SARS-CoV-2 cytopathic effect (reported value) for this compound: "CC(C)(C)CC(C)(C)c1cc(Cc2cc(C(C)(C)CC(C)(C)C)cc(-n3nc4ccccc4n3)c2O)c(O)c(-n2nc3ccccc3n2)c1"
Resp: 2.98

Req: Write down inhibition of SARS-CoV-2 cytopathic effect measured for item "CC(C)Oc1cccc(-n2c(CCc3c[nH]c4ccc(Br)cc34)nc3ccccc3c2=O)c1"
Resp: 2.18

Req: Find the measured inhibition of SARS-CoV-2 cytopathic effect of "O=C1c2ccccc2S(=O)(=O)N1CCCCN1CCN(c2ncccn2)CC1" and report it.
Resp: 2.92

Req: Specify inhibition of SARS-CoV-2 cytopathic effect for "c1ccc(C2CC2)c(OCC2=NCCN2)c1" and stop.
Resp: 0.31

Req: Give the reported value of inhibition of SARS-CoV-2 cytopathic effect for this record: "Cc1nc2ccccc2n1Cc1ccc(Cl)cc1"
Resp: -1.1

====

Examples of compounds with documented morphology score follow.
system: Vero E6 infected with SARS-CoV-2; experiment: morphology score (similarity to uninfected cells); higher = more like uninfected cells; settings: 24 h
No unit in the answer, only the number.

Please review the following examples before continuing.
C[C@@H](NC(=O)c1ncnc(N)c1Cl)c1ncc(C(=O)Nc2cc(C(F)(F)F)c(Cl)cn2)s1 (10 µM) | -0.0506
CCc1cc2c(cc1CC)CC(NC[C@H](O)c1ccc(O)c3[nH]c(=O)ccc13)C2 [indacaterol] (10 µM) | 0.0532

Req: In one line, give reported morphology score of the entry C[C@@H](O)[C@H]1C(=O)N2C(C(=O)O)=C(S[C@@H]3CN[C@H](C(=O)Nc4cccc(C(=O)O)c4)C3)[C@H](C)[C@H]12 [ertapenem] (10 µM) .
Resp: 0.126

Req: State its morphology score: O=C(Nc1cccc2c(=O)cc(-c3nnn[nH]3)oc12)c1ccc(OCCCCc2ccccc2)cc1 [pranlukast] (10 µM)
Resp: 0.0454

Req: For Oc1ccc(CC2NCCc3cc(O)c(O)cc32)cc1 (stereo not drawn) [higenamine] (0.833333 µM) , write its morphology score.
Resp: 0.0764

Req: State, in one line, measured morphology score of COc1ccccc1CN[C@H]1CCCN[C@H]1c1ccccc1 (10 µM)
Resp: 0.24

Req: Consider the compound c1ccc(Cn2c(-c3ccc(OC[C@H](C4CCNCC4)n4c(-c5ccccc5)nc5ccccc54)cc3)nc3ccccc32)cc1 [deltarasin] (0.833333 µM) and give its recorded morphology score.
Resp: 0.147

Req: Give a short answer stating reported morphology score for O=c1c(O)c(-c2cc(O)c(O)c(O)c2)oc2cc(O)cc(O)c12 [myricetin] (10 µM) .
Resp: 0.195

====

test system: Vero E6 infected with SARS-CoV-2; assay: inhibition of SARS-CoV-2 cytopathic effect; higher = more antiviral protection, active = above 15; conditions: 8.33 nM; 48 h
Overview of reported inhibition of SARS-CoV-2 cytopathic effect across a group of molecules:
Unit % implied. Number only.

CCCN(CCC)C(=O)C(CCC(=O)OCCCN1CCN(CCOC(=O)Cc2c(C)n(C(=O)c3ccc(Cl)cc3)c3ccc(OC)cc23)CC1)NC(=O)c1ccccc1 (stereo not drawn) | -2.43

Req: Supply reported inhibition of SARS-CoV-2 cytopathic effect belonging to this molecule: Cc1c(C)c2c(c(C)c1OC(=O)CCC(=O)O)CC[C@@](C)(CCC[C@H](C)CCC[C@H](C)CCCC(C)C)O2 [D-alpha-tocopheryl-succinate]
Resp: -5.87

Req: Please give the documented inhibition of SARS-CoV-2 cytopathic effect of "CCCCCCCCCCCCCCCC=O"
Resp: 2.85

Req: Consider the molecule C[C@]12CC[C@@H]3c4ccc(OC(=O)N(CCCl)CCCl)cc4CC[C@H]3[C@@H]1CC[C@@H]2OP(=O)(O)O [estramustine-phosphate] . State its measured inhibition of SARS-CoV-2 cytopathic effect.
Resp: 0.03

Req: State, in one line, measured inhibition of SARS-CoV-2 cytopathic effect of "C[C@@H](Nc1cc(F)cc(F)c1)c1cc(C(=O)N(C)C)cc2c(=O)cc(N3CCOCC3)oc12"
Resp: -2.8

Req: Give a short answer stating reported inhibition of SARS-CoV-2 cytopathic effect for "Fc1ccc(Cl)cc1-c1nc(Nc2ccncc2)c2nccnc2n1" .
Resp: 0.45

Req: Provide measured inhibition of SARS-CoV-2 cytopathic effect value, entry: "COc1ncc(-c2ccc3c(Nc4cc(Oc5cc(F)cc(F)c5)cc(C(=O)O)c4)c(S(=O)(=O)NC4CC4)cnc3c2)c(OC)n1"
Resp: 2.2

Req: Complete the entry with inhibition of SARS-CoV-2 cytopathic effect for "CC(C)NC(=O)COc1cccc(-c2nc(Nc3ccc4[nH]ncc4c3)c3ccccc3n2)c1"
Resp: -1.42

====

system: Vero E6 infected with SARS-CoV-2; assay: inhibition of SARS-CoV-2 cytopathic effect; higher = more antiviral protection, active = above 15; settings: 10000 nM; 48 h
property name: inhibition of SARS-CoV-2 cytopathic effect (%)
Give your result in % as a bare value.

// below: answered compounds
CC(=O)Nc1cccc(-n2c(=O)n(C3CC3)c(=O)c3c(Nc4ccc(I)cc4F)n(C)c(=O)c(C)c32)c1 | -17.4
O=C(Nc1cc(C(F)(F)F)cc(C(F)(F)F)c1)c1cnc(Cl)nc1C(F)(F)F | -13.9

Req: Tell me measured inhibition of SARS-CoV-2 cytopathic effect for "CC(C)OC(=O)OCOP(=O)(CO[C@H](C)Cn1cnc2c(N)ncnc21)OCOC(=O)OC(C)C" please.
Resp: -9.11

Req: Return inhibition of SARS-CoV-2 cytopathic effect for the following compound: "Cc1nc(-c2ccc(OCC(C)C)c(C#N)c2)sc1C(=O)O"
Resp: 1.58

====

tested on: Vero E6 infected with SARS-CoV-2; assay: SARS-CoV-2 infection rate relative to infected DMSO; higher = more infection, active = 60 or less; settings: 24 h
// allowed return values: 1 (yes) for active, 0 (no) for inactive

Examples with answers:
CN(C)CCCN1c2ccccc2Sc2ccccc21 [promazine] (10 µM) | 0 (no)
O=C(CCCCCCC(=O)Nc1cccnc1)NO [pyroxamide] (0.833333 µM) | 0 (no)
O=C(O)c1ccccc1C(=O)Nc1ccc(-c2ccccc2)cc1 [kartogenin] (10 µM) | 0 (no)

Req: Which outcome was entered for the molecule CCCCc1nc(Cl)c(C(=O)O)n1Cc1ccc(-c2ccccc2-c2nn[nH]n2)cc1 [carboxylosartan] (10 µM) in this test?
Resp: 0 (no)

Req: Hey, what did the test say about O=C1CN(/N=C/c2ccc(-c3ccc([N+](=O)[O-])cc3)o2)C(=O)N1 [dantrolene] (10 µM) ?
Resp: 0 (no)

Req: Recorded call for Cc1ccc(C(=O)N(CCCN)[C@@H](c2nc3cc(Cl)ccc3c(=O)n2Cc2ccccc2)C(C)C)cc1 [ispinesib] (0.833333 µM) ?
Resp: 0 (no)

Req: Outcome? CC1OC2(CS1)CN1CCC2CC1 (centres undefined) [cevimeline] (10 µM)
Resp: 0 (no)

Req: Recorded test outcome, item O=C1CS[C@@H](c2ccccc2Cl)c2cc(Cl)ccc2N1 (racemic) (10 µM)
Resp: 0 (no)

Req: Test call for this molecule, please: CN1CCC[C@@H]1CCO[C@](C)(c1ccccc1)c1ccc(Cl)cc1 [clemastine] (10 µM)
Resp: 1 (yes)

====

tested on: Vero E6 infected with SARS-CoV-2; assay: inhibition of SARS-CoV-2 cytopathic effect; higher = more antiviral protection, active = above 15; settings: 10000 nM; 48 h
property name: inhibition of SARS-CoV-2 cytopathic effect (%)
Provide only the numeric value, understood in %.

Solved cases below.
O=C(CBr)N1CC([N+](=O)[O-])([N+](=O)[O-])C1 | 0.95
O=C1C=Cc2cc(Br)ccc2C1=O [bonaphthone] | -2.53

Req: Give recorded inhibition of SARS-CoV-2 cytopathic effect. CC1(C)S[C@@H]2[C@H](NC(=O)C(C(=O)O)c3ccccc3)C(=O)N2[C@H]1C(=O)O (some centres undefined) [carbenicillin]
Resp: 0.1

Req: Given CCN(CC)C(=O)/C(C#N)=C/c1cc(O)c(O)c([N+](=O)[O-])c1 [entacapone] , respond with its inhibition of SARS-CoV-2 cytopathic effect.
Resp: -0.4

Req: Give the reported value of inhibition of SARS-CoV-2 cytopathic effect for this record: Cc1cccn2c(=O)c(-c3nnn[nH]3)cnc12 [pemirolast]
Resp: -1.12

Req: Indicate the recorded inhibition of SARS-CoV-2 cytopathic effect value for this compound: CCCC(C)C1(CC)C(=O)NC(=S)NC1=O (centres undefined) [thiopental]
Resp: 0.45

Req: Provide measured inhibition of SARS-CoV-2 cytopathic effect value, entry: CCCN1C[C@H](CSC)C[C@@H]2c3cccc4[nH]cc(c34)C[C@H]21 [pergolide]
Resp: -1.92

Req: Supply measured inhibition of SARS-CoV-2 cytopathic effect of O=C(OCCOCCO)c1ccccc1Nc1cccc(C(F)(F)F)c1 [etofenamate] in your reply.
Resp: -2.39

Req: In one line, give reported inhibition of SARS-CoV-2 cytopathic effect of the entry "O=C(NCC(=O)N1CCCC1)Nc1ccc2cnccc2c1" .
Resp: -1.4

Req: Return inhibition of SARS-CoV-2 cytopathic effect (reported value) for this compound: CC1=C(C(=O)Nc2cc3cn[nH]c3cc2F)C(c2ccc(C(F)(F)F)cc2)CC(=O)N1 (centres undefined)
Resp: -5.1

Req: Give the reported value of inhibition of SARS-CoV-2 cytopathic effect for this record: CCn1ccnc1CC1COc2ccccc2O1 (centres undefined) [imiloxan]
Resp: -0.13

Req: Identify the reported inhibition of SARS-CoV-2 cytopathic effect for the following entry. C=C[C@H]1CN2CC[C@H]1CC2C(OC(=O)OCC)c1ccnc2ccc(OC)cc12 (stereo in doubt) [quinine-ethyl-carbonate]
Resp: 5.77

Req: In one line, give reported inhibition of SARS-CoV-2 cytopathic effect of the entry CN1CCOC(c2ccccc2)c2ccccc2C1 (centres undefined) [nefopam] .
Resp: -1.47

Req: For the compound "CCS(=O)(=O)N1CCC([C@@H](C)n2c(C)c(C(=O)NCc3c(OC)cc(C)[nH]c3=O)c3ccccc32)CC1" , report inhibition of SARS-CoV-2 cytopathic effect.
Resp: -1.12

Req: Complete the entry with inhibition of SARS-CoV-2 cytopathic effect for CN(C)CCN(Cc1cccs1)c1ccccn1 [methapyrilene]
Resp: -1.68

Req: Fill in reported inhibition of SARS-CoV-2 cytopathic effect for this entry: N[C@@H]1[C@H]2CN(c3nc4c(cc3F)c(=O)c(C(=O)O)cn4-c3ccc(F)cc3F)C[C@@H]12 [trovafloxacin]
Resp: -1.33

Req: Specify inhibition of SARS-CoV-2 cytopathic effect for COc1cc2c(c(OC)c1OC)-c1c(cc3c(c1OC)OCO3)CC(C)C(C)C2 (centres undefined) [schisandrin-B] and stop.
Resp: -1.42

Req: Quick one: give measured inhibition of SARS-CoV-2 cytopathic effect for CCCCc1ccc(O)cc1O [rucinol]
Resp: 0.4

Req: Identify the reported inhibition of SARS-CoV-2 cytopathic effect for the following entry. COc1ccc2[nH]c([S+]([O-])Cc3ncc(C)c(OC)c3C)nc2n1 (centres undefined) [tenatoprazole]
Resp: 2.26

The measured values listed here are drawn from the supplement of paper PMC13380429.
